# Tested on: 786-0 renal
# test.protocol: NCI tumour cell line growth inhibition, 48 h
Recorded TGI by entry

Example compounds with recorded TGI:
Cn1cnc([N+](=O)[O-])c1SC1=NCCS1; > 100 µM
COc1ccc(Cn2cc3c(c2-c2ccc(O)cc2)CCc2cnoc2-3)cc1; 19.1 µM
CN(C)CS/C(N)=N\C(O)C(Cl)(Cl)Cl (stereo unspecified); > 100 µM
C[N+](C)(C)Cc1c(CC#N)[nH]c2ccccc12; > 100 µM
Cn1c(=O)c2c(ncn2CCSS(=O)(=O)O)n(C)c1=O; > 100 µM
CNc1cccnc1/C=N/NC(N)=S; > 10 µM
Cc1ccc(/C=C/C(=O)c2ccc(N)cc2)c(C)c1; 3.45 µM
CC(=O)[O-].CC(=O)[O-].O=C(N/N=C/c1cc(Cl)cc(Cl)c1[OH2+])c1ccncc1.[Zn+2]; > 100 µM
Cc1cc(N(CCC#N)CCC#N)ccc1/C(N=Nc1ccccc1)=N\NC(=O)c1ccccc1; 76.6 µM
COP(=O)(OC)C(O)/C=C/c1ccco1 (stereo unspecified); > 100 µM

Now for another entry.
Return TGI for the following compound: CC(=O)OC1(C#N)CC2OC1C1C2N1C(=O)OC(C)(C)C (stereo unspecified)
> 100 µM
